These data points were gathered from paper PMC3137622.

# targetOrSystem: monoclonal antibody 7C11 (anti-Bla g 2)
# Sequence (chain, as listed by the source, chain 2 of 2, other chains not shown): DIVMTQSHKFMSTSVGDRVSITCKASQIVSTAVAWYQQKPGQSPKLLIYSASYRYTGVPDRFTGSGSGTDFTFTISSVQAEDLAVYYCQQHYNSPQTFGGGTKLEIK
# experimentSummary: competition ELISA
# conditionDetails: chain shown with the change; competitor concentration 0.1 µg/ml; solid phase rBla g 2-N93Q; parent: est. 47; read off a plot
quantity: other: Biotinylated mAb 7C11 bound to Bla g 2 (%)
Report the figure in % without appending any unit label.

Field: example entries. Status: answers known.
- binder: "recombinant Bla g 2-N93Q E86A (protein) VPLYKLVHVFINTQYAGITKIGNQNFLTVFDSTSCNVVVASQECVGGACVCPNLQKYEKLKPKYISDGNVQVKFFDTGSAVGRGIADSLTISQLTTSQQDIVLADELSQEVCILSADVVVGIAAPGCPNALKGKTVLENFVEENLIAPVFSIHHARFQDGEHFGEIIFGGSDWKYVDGEFTYVPLVGDDSWKFRLDGVKIGDTTVAPAGTQAIIDTSKAIIVGPKAYVNPINEAIGCVVEKTTTRRICKLDCSKIPSLPDVTFVINGRNFNISSQYYIQQNGNLCYSGFQPCGHSDHFFIGDFFVDHYYSEFNWENKTMGFGRSVESV"
  measuredValue: 82
- binder: "recombinant Bla g 2-N93Q R83A (protein) VPLYKLVHVFINTQYAGITKIGNQNFLTVFDSTSCNVVVASQECVGGACVCPNLQKYEKLKPKYISDGNVQVKFFDTGSAVGAGIEDSLTISQLTTSQQDIVLADELSQEVCILSADVVVGIAAPGCPNALKGKTVLENFVEENLIAPVFSIHHARFQDGEHFGEIIFGGSDWKYVDGEFTYVPLVGDDSWKFRLDGVKIGDTTVAPAGTQAIIDTSKAIIVGPKAYVNPINEAIGCVVEKTTTRRICKLDCSKIPSLPDVTFVINGRNFNISSQYYIQQNGNLCYSGFQPCGHSDHFFIGDFFVDHYYSEFNWENKTMGFGRSVESV"
  measuredValue: 82

Proceeding to the next binder to report its other: Biotinylated mAb 7C11 bound to Bla g 2 (%).
q: Look up and state reported other: Biotinylated mAb 7C11 bound to Bla g 2 (%) for recombinant Bla g 2-N93Q D68aA (protein) VPLYKLVHVFINTQYAGITKIGNQNFLTVFDSTSCNVVVASQECVGGACVCPNLQKYEKLKPKYISAGNVQVKFFDTGSAVGRGIEDSLTISQLTTSQQDIVLADELSQEVCILSADVVVGIAAPGCPNALKGKTVLENFVEENLIAPVFSIHHARFQDGEHFGEIIFGGSDWKYVDGEFTYVPLVGDDSWKFRLDGVKIGDTTVAPAGTQAIIDTSKAIIVGPKAYVNPINEAIGCVVEKTTTRRICKLDCSKIPSLPDVTFVINGRNFNISSQYYIQQNGNLCYSGFQPCGHSDHFFIGDFFVDHYYSEFNWENKTMGFGRSVESV
a: 98
